# System: TNFα
# protocol.text: Cot Monocyte TNFα Cell Based Assay
# experimental.context: Homo sapiens, Monocyte, read-out: EC50 TNF, LPS-stimulated human monocytes, TNFα
assay.readout: EC50 (nM)
Answers are plain numbers, in nM.

Worked examples, 3 compounds total:
compound.string	measured.target	assay.readout	units.text	measured
Cn1cc2c([C@H](Nc3cc(Cl)c4ncc(C#N)c(NCC(C)(C)C)c4c3)c3cn(C4(C(F)(F)F)CC4)nn3)cccc2n1	TNFα	EC50	nM	210
Cn1cnc([C@H](Nc2cc(Cl)c3ncc(C#N)c(Nc4ccc(F)c(Cl)c4)c3c2)c2c[nH]nn2)c1	TNFα	EC50	nM	28800
[2H][C@](Nc1cc(C#N)c2ncc(C#N)c(N[C@H](CC#N)c3ccccc3)c2c1)(c1ccc(F)nc1)c1cn(C2CC2)nn1	TNFα	EC50	nM	142

Ask | Fill in reported EC50 for this entry: N#Cc1cnc2c(Cl)cc(N[C@H](c3c[nH]nn3)c3csc4c3CCNC4)cc2c1Nc1ccc(F)c(Cl)c1
Reply | 2330
